Source listed as patent US10683273B2.

# System: P. falciparum
# assay.summary: IC50 determination in malaria parasites
# Type: cell-based, Plasmodium falciparum
# experimental.conditions: Plasmodium falciparum; early trophozoite stage, 40 h treatment, parasitemia count; read-out: IC50
pIC50: −log10 of the molar value.
reported.metric: pIC50

Query block: # query: pIC50 of entry `C[n+]1c(/C=C/c2ccc(O)c(/C=C/c3sc4ccccc4[n+]3C)c2)sc2ccccc21`
Result block: > 5.40
